- Test system: T2635-resistant virus H3C
- Format: cell-based, HIV-1
- Condition Label: T2635-resistant virus H3C (A6V L33S Q66R N126K H132Q E136G); means ± SD
Measured Quantity: IC50
Answer format reminder: number followed by unit.

*Q* Can you share its IC50? I mean this compound: CC1(C)CC(NC(=O)C(=O)Nc2ccc(Cl)c(F)c2)CC(C)(C)N1C(=O)COc1ccc(CCN2C(=O)/C(=C/c3ccc(-c4ccc(Cl)c(C(=O)O)c4)o3)SC2=S)cc1 [FD028]
*A* 270 nM

----------
- Test system: T2635-resistant virus K90E N126K
- Format: cell-based, HIV-1
- Condition Label: inactivation of cell-free virions, means ± SD
Measured Quantity: EC50 (µM)
Provide the reading as a plain figure in µM.

*Q* What measured EC50 goes with CC1(C)CC(NC(=O)C(=O)Nc2ccc(Cl)c(F)c2)CC(C)(C)N1C(=O)COc1ccc(CCN2C(=O)/C(=C/c3ccc(-c4ccc(Cl)c(C(=O)O)c4)o3)SC2=S)cc1 [FD028] ?
*A* 0.49
